Listing of entries alongside the reported EC50.
Target: Oxysterols receptor LXR-beta (Homo sapiens, UniProt P55055)
Sequence (P55055 whole entry, the tested form may be a part): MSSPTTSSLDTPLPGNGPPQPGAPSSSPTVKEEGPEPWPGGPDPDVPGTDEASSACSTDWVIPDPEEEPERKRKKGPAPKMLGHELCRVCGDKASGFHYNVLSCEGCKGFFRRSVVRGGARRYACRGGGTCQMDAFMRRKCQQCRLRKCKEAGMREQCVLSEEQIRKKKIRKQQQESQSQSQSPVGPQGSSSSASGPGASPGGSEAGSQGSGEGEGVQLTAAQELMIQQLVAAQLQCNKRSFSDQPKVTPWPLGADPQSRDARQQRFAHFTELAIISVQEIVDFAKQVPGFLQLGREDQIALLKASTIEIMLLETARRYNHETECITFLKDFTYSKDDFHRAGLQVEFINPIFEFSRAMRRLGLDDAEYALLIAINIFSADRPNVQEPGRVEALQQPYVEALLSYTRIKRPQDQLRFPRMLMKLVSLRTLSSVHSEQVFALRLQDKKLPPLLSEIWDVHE
Assay: Agonist activity at LXRbeta LBD by HTRF cofactor peptide recruitment assay
Format: functional
Value kind: EC50

{"columns": ["Compound", "Experimental result"],
 "data": [
  ["CC(C)(C)OC(=O)n1c(-c2ccc3c(c2)CC(NS(=O)(=O)c2ccccc2)C3)cc2ccc(OCc3ccccc3)cc21 (stereo not given)", "> 30000 nM"],
  ["CCCCC(C)COC(=O)n1c(-c2ccc3c(c2)CC(NS(=O)(=O)c2ccccc2)C3)cc2ccccc21 (stereo not given)", "> 30000 nM"],
  ["CC(C)(C)OC(=O)n1c(-c2ccc3c(c2)CC(NS(=O)(=O)c2ccccc2)C3)cc2c(O)cccc21 (stereo not given)", "> 30000 nM"],
  ["CC(C)(C)CC(=O)n1c(-c2ccc3c(c2)CC(NS(=O)(=O)c2ccccc2)C3)cc2ccccc21 (stereo not given)", "> 30000 nM"],
  ["CC(C)(C)OC(=O)n1c(-c2ccc3c(c2)CC(NS(=O)(=O)c2ccccc2)C3)cc2ccccc21 (stereo not given)", "190 nM"],
  ["CC(C)(C)OC(=O)n1c(-c2ccc3c(c2)CC(NC(=O)c2ccccc2)C3)cc2ccccc21 (stereo not given)", "190 nM"],
  ["CC(C)(C)OC(=O)n1c(-c2ccc3c(c2)CC(NS(=O)(=O)Cc2ccccc2)C3)cc2ccccc21 (stereo not given)", "520 nM"],
  ["CCOC(=O)n1c(-c2ccc3c(c2)CC(NS(=O)(=O)c2ccccc2)C3)cc2ccccc21 (stereo not given)", "1600 nM"],
  ["CC(C)(C)OC(=O)n1c(-c2ccc3c(c2)CC(NS(=O)(=O)c2ccccc2)C3)cc2cc(O)ccc21 (stereo not given)", "> 30000 nM"],
  ["O=S(=O)(NC1Cc2ccc(-c3cc4ccccc4n3CCCOCc3ccccc3)cc2C1)c1ccccc1 (stereo not given)", "> 30000 nM"],
  ["CC(C)(C)OC(=O)n1c(-c2ccc3c(c2)CC(NS(=O)(=O)c2ccccc2)C3)cc2cc(OCc3ccccc3)ccc21 (stereo not given)", "> 30000 nM"],
  ["COC(=O)c1ccccc1S(=O)(=O)NC1Cc2ccc(-c3cc4ccccc4n3C(=O)OC(C)(C)C)cc2C1 (stereo not given)", "600 nM"],
  ["CC(C)(C)OC(=O)n1c(-c2ccc3c(c2)CC(NS(=O)(=O)c2ccccc2)C3)cc2ccc(O)cc21 (stereo not given)", "670 nM"],
  ["CC(C)(C)OC(=O)Cn1c(-c2ccc3c(c2)CC(NS(=O)(=O)c2ccccc2)C3)cc2ccccc21 (stereo not given)", "> 30000 nM"],
  ["COc1ccccc1S(=O)(=O)NC1Cc2ccc(-c3cc4ccccc4n3C(=O)OC(C)(C)C)cc2C1 (stereo not given)", "600 nM"]
]}

FYI, the data here is from ChEMBL document CHEMBL1139922.
